meta.source: patent US20200170968A1

# Test system: CEM cells
# assay: Cytostatic activity assay (cell proliferation, Coulter counter)
# Type: cell-based
# experimentalParameters: Homo sapiens, CCRF-CEM, 72 h, 50% inhibitory concentration of cell proliferation
# Procedure: The cytostatic activity assay was performed in 96-well microliter plates. 5-7.5×10^4 cells and a given amount of the test compound were added to each well. The cells were allowed to proliferate for 72 h at 37° C. is a humidified CO2-controlled atmosphere. At the end of the incubation period, the cells were counted in a Coulter counter. The IC50 (half maximal inhibitory concentration) was defined as the concentration of the compound that inhibited cell proliferation by 50%.

| smilesText | IC50 |
| --- | --- |
| CC(=O)N[C@@H](CS)C(N)=O | ~564 µM |
